Procedure Summary: chemical genetic growth profiling, strain panel (AID 1159580);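 further: tested at 20 µM; growth read once vehicle control cultures reached saturation at 30 °C; 1 = growth at the plate median or of vehicle wells; lower values mean less growth of the strain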
Condition Label: S. cerevisiae deletion strains, growth OD, locus YDR195W, strain ref2
The whole screen tested about 5,500 compounds, of which about 2,000 (36%) were called active. About 18% were inconclusive and are not listed. Some of the results follow.
Experimental Readout: normalized growth
Give your answer as a number; write no unit.

Item under review: CC(=O)O[C@H]1C[C@@H](OC(C)=O)C(C)(C)C2CC(=O)[C@]3(C)C(CC[C@@]4(C)[C@H](C(=O)O)OC(=O)C5OC543)[C@]21C (stereo not given in full) . Reported normalized growth?
0.936

// query: C=C[C@@](C)(O)CCC1C(=C)C[C@H](OC(C)=O)C2C(C)(C)CCCC12C (stereo not given in full)
1.06

// query: C=C[C@@](C)(O)CCC1C(=C)C[C@H](O)C2C(C)(C)CCCC12C (stereo not given in full)
1.05

// query: COC(=O)C1=COC(OC2OC(CO)C(O)C(O)C2O)C2C(C)CC(=O)C12 (stereo not given)
1.02

Further cases:
Item under review: CN(C)CCOC(c1ccc(Cl)cc1)c1ccccn1 (stereo not given) . Reported normalized growth?
1.02

---

Procedure Summary: chemical genetic growth profiling, strain panel (AID 1159580);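 further: tested at 20 µM; growth read once vehicle control cultures reached saturation at 30 °C; 1 = growth at the plate median or of vehicle wells; lower values mean less growth of the strain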
Condition Label: S. cerevisiae deletion strains, growth OD, locus YAL040C, strain CLN3, stronger effect = lower value
About 2,000 (36%) of roughly 5,500 compounds were called active. About 18% were inconclusive and are not listed. The list shows a part of the results.
Experimental Readout: normalized growth
Give your answer as a number; write no unit.

Worked examples, 3 compounds total:
Item under review: NC(Cc1cccc(-c2ccccc2CP(=O)(O)O)c1)C(=O)O (stereo not drawn) . Reported normalized growth?
1

// query: `NS(=O)(=O)c1cc2c(cc1Cl)NC=NS2(=O)=O`
1

// query: `CNCC[C@@H](Oc1ccc(C(F)(F)F)cc1)c1ccccc1`
1.04

Further cases:
Item under review: `O=c1c(-c2ccc(O)cc2)coc2cc(O)ccc12` . Reported normalized growth?
1.01

// query: CCn1cc(C(=O)O)c(=O)c2cc(F)c(N3CCNC(C)C3)c(F)c21 (stereo not drawn)
0.984

// query: CC1COc2c(N3CCN(C)CC3)c(F)cc3c(=O)c(C(=O)O)cn1c23 (stereo not drawn)
1.03

// query: `CN(C)CCN(Cc1cccs1)c1ccccn1`
1.02

// query: `CNCC[C@H](Oc1ccc(C(F)(F)F)cc1)c1ccccc1`
0.981

---

Procedure Summary: chemical genetic growth profiling, strain panel (AID 1159580);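 further: tested at 20 µM; growth read once vehicle control cultures reached saturation at 30 °C; 1 = growth at the plate median or of vehicle wells; lower values mean less growth of the strain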
Condition Label: S. cerevisiae deletion strains, growth OD, locus YKR001C, strain vps1, stronger effect = lower value
Hit rate of the full screen: of about 5,500 compounds, about 2,000 (36%) were called active. Not shown: some 18% with an inconclusive outcome. The list shows a part of the results.
Listed compounds paired with reported normalized growth
Give your answer as a number; write no unit.

Worked examples, 4 compounds total:
Item under review: `O=C(O)CCCc1ccccc1` . Reported normalized growth?
0.951

// query: `COc1ccc2c(c1)OC/C(=C\c1ccc(OC)c(O)c1)C2=O`
0.651

// query: `Cc1ccc(S(=O)(=O)NC(=O)NN2CCCCCC2)cc1`
0.981

// query: `CN1CC(CO)=C[C@@H]2c3cccc4[nH]cc(c34)C[C@H]21`
1.02

Further cases:
Item under review: `NC(=O)c1ccc[n+]([C@@H]2O[C@H](COP(=O)([O-])OP(=O)(O)OC[C@H]3O[C@@H](n4cnc5c(N)ncnc54)[C@H](OP(=O)(O)O)[C@@H]3O)[C@@H](O)[C@H]2O)c1` . Reported normalized growth?
0.996

// query: `N[C@@H](Cc1ccc(N(CCCl)CCCl)cc1)C(=O)O`
0.961

// query: `NS(=O)(=O)c1cc2c(cc1Cl)NC=NS2(=O)=O`
0.988
